# ASSAY INFO: Clearance in mouse at 10 mg/kg, po
# Format: ADME, organism-based
# MEASUREMENT SETUP: in vivo
Entries and their measured CL/F follow.
The response must be a number in mL/min/kg with no trailing unit.

Consider the following illustrative entries.
Param item = `[2H]C([2H])([2H])NC(=O)c1nnc(NC(=O)C2CC2)cc1Nc1cccc(-c2cnc(C(C)(C)O)cn2)c1OC` ; retrieve measured CL/F.
5.3

Param item = `[2H]C([2H])([2H])NC(=O)c1nnc(NC(=O)C2CC2)cc1Nc1cccc(-c2ncccn2)c1OC` ; retrieve measured CL/F.
7.9

---
Param item = [2H]C([2H])([2H])NC(=O)c1cnc(NC(=O)C2CC2)cc1Nc1cccc(-c2ncc(F)cn2)c1OC [BMS-986202] ; retrieve measured CL/F.
3

Param item = `[2H]C([2H])([2H])NC(=O)c1nnc(NC(=O)C2CC2)cc1Nc1cccc(-c2cnc(C(=O)N(C)C)cn2)c1OC` ; retrieve measured CL/F.
7.6

---

# ASSAY INFO: Oral bioavailability in rat at 10 mg/kg
# Assay type: ADME, organism-based
# MEASUREMENT SETUP: in vivo
QUANTITY NAME: bioavailability (%)
The response must be a number in % with no trailing unit.

Param item = [2H]C([2H])([2H])NC(=O)c1cnc(NC(=O)C2CC2)cc1Nc1cccc(-c2ncc(F)cn2)c1OC [BMS-986202] ; retrieve measured bioavailability.
72

---

# ASSAY INFO: AUC (0 to 24 hrs) in cynomolgus monkey at 7 mg/kg, po
# Format: ADME, organism-based, Macaca fascicularis
# Parameters: time < 24 hr, route oral, dose 7 mg/kg
# MEASUREMENT SETUP: in vivo
QUANTITY NAME: AUC(0-t) at 24 h
// unit must come after the numeric part

Param item = `[2H]C([2H])([2H])NC(=O)c1cnc(NC(=O)C2CC2)cc1Nc1cccc(-c2ncc(F)cn2)c1OC` ; retrieve measured AUC(0-t) at 24 h.
130 µM·h

---

Entries and their measured remaining at 10 min follow.
# ASSAY INFO: Stability in rat liver microsomes assessed as parent compound remaining after 10 mins
# Assay type: ADME, Microsome
# MEASUREMENT SETUP: read-out: Stabilty
The response must be a number in % with no trailing unit.

Param item = `[2H]C([2H])([2H])NC(=O)c1nnc(NC(=O)C2CC2)cc1Nc1cccc(-c2cnccn2)c1OC` ; retrieve measured remaining at 10 min.
1

---
Param item = `[2H]C([2H])([2H])NC(=O)c1nnc(NC(=O)C2CC2)cc1Nc1cccc(-c2ccccn2)c1OC` ; retrieve measured remaining at 10 min.
34

Param item = `[2H]C([2H])([2H])NC(=O)c1nnc(NC(=O)C2CC2)cc1Nc1cccc(-c2cccnn2)c1OC` ; retrieve measured remaining at 10 min.
8

Param item = [2H]C([2H])([2H])NC(=O)c1nnc(NC(=O)C2CC2)cc1Nc1cccc(-c2ncn(C)n2)c1OC [DEUCRAVACITINIB] ; retrieve measured remaining at 10 min.
100

---

Entries and their measured remaining at 10 min follow.
# ASSAY INFO: Stability in rat liver microsomes assessed as parent compound remaining after 10 mins
# Assay type: ADME, Microsome
# MEASUREMENT SETUP: read-out: Stabilty
The response must be a number in % with no trailing unit.

Param item = `[2H]C([2H])([2H])NC(=O)c1nnc(NC(=O)C2CC2)cc1Nc1cccc(-c2ncccn2)c1OC` ; retrieve measured remaining at 10 min.
77

---
Param item = `[2H]C([2H])([2H])NC(=O)c1nnc(NC(=O)C2CC2)cc1Nc1cccc(-c2ccncn2)c1OC` ; retrieve measured remaining at 10 min.
3

Param item = `[2H]C([2H])([2H])NC(=O)c1nnc(NC(=O)C2CC2)cc1Nc1cccc(-c2cnc(C(C)(C)O)cn2)c1OC` ; retrieve measured remaining at 10 min.
90
